The reported numbers originate from ChEMBL document CHEMBL1137127.

Target: Metabotropic glutamate receptor 5 (Homo sapiens, UniProt P41594)
Sequence (P41594 whole entry): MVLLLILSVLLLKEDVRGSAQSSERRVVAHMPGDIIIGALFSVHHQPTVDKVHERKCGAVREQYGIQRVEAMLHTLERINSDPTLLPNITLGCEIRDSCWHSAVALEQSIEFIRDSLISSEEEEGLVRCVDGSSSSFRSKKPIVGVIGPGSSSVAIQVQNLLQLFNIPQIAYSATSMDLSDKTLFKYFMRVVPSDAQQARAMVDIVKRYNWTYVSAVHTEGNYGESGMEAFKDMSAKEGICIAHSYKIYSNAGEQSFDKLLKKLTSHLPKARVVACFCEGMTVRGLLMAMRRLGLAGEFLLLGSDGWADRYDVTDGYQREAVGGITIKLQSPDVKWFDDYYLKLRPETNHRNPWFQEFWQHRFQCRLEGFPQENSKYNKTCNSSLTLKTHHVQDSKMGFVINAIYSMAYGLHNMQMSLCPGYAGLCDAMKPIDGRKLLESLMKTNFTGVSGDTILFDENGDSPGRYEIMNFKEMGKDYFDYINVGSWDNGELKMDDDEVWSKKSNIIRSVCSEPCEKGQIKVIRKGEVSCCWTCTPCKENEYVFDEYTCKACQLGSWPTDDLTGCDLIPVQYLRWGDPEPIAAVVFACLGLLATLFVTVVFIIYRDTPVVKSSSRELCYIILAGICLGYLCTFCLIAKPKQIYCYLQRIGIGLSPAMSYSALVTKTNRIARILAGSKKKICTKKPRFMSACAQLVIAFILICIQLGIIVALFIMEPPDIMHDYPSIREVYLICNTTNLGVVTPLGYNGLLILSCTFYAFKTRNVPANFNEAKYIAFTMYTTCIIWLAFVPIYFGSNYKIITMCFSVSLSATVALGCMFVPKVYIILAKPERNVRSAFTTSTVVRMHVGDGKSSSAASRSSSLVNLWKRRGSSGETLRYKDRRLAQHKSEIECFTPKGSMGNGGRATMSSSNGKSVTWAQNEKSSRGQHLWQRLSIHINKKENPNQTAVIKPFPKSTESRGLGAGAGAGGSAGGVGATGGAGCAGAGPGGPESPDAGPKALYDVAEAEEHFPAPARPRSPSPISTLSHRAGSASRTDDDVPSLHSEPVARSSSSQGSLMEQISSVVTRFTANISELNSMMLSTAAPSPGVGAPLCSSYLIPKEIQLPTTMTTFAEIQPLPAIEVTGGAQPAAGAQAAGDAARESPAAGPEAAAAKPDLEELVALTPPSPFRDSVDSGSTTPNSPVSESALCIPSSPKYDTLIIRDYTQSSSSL
Assay: In vitro potency against human recombinant mGlu5 receptor was determined by [Ca2+] flux assay using glutamate as agonist
attribute.measured: IC50 (nM)
Please respond with the number in nM and leave the unit unwritten.

Previously resolved entries follow.
- smiles.str: "Cc1nc(C#Cc2ccccc2-c2ccccc2)cs1"
  attribute.measured: "IC50"
  reading: 423
- smiles.str: "Cc1nc(C#Cc2cncc(-c3ccccn3)c2)cs1"
  attribute.measured: "IC50"
  reading: 22
- smiles.str: "Cc1nc(C#Cc2ccccc2C)cs1"
  attribute.measured: "IC50"
  reading: 15
- smiles.str: "Cc1nc(C#Cc2ccncc2)cs1"
  attribute.measured: "IC50"
  reading: 127
- smiles.str: "Cc1nc(C#Cc2cncc(-c3ccccc3)c2)cs1"
  attribute.measured: "IC50"
  reading: 2
- smiles.str: "Cc1nc(C#Cc2ccccc2)cs1"
  attribute.measured: "IC50"
  reading: 4
- smiles.str: "Cc1nc(C#Cc2ccc(-c3ccccc3)cc2)cs1"
  attribute.measured: "IC50"
  reading: 22
- smiles.str: "Cc1nc(C#Cc2ccc(-c3ccncc3)nc2)cs1"
  attribute.measured: "IC50"
  reading: 29

Next item in the queue.
[Q] Quick one: give measured IC50 for Cc1nc(C#Cc2cncc(-c3ccncc3)c2)cs1
[A] 18
